# fold change (FC) listing for each entry below
target: Vitamin D3 receptor (Mus musculus) (UniProt P48281); assay: Activation of VDR in mouse C3H10T1/2 cells assessed as upregulation of CYP24A1 mRNA expression at 5 uM after 24 hrs by RT-PCR analysis relative to DMSO-treated control; format: cell-based; details: C3H 10T1/2
No unit in the answer, only the number.

Record excerpt, results attached:
# Cpd Smiles, fold change (FC)
rows = [
    ("CC(C)CCC[C@@H](C)[C@H]1CC[C@H]2[C@@H](OC(=O)c3cccc(N)c3)CCC[C@]12C", 24.3),
    ("CC(C)CCC[C@@H](C)[C@H]1CC[C@H]2[C@@H](OC(=O)c3ccco3)CCC[C@]12C", 1.7),
    ("CC(C)CCC[C@@H](C)[C@H]1CC[C@H]2[C@@H](OC(=O)c3ccccn3)CCC[C@]12C", 57.1),
    ("CC(C)CCC[C@@H](C)[C@H]1CC[C@H]2[C@@H](OC(=O)c3ncccc3O)CCC[C@]12C", 3.1),
    ("CC(C)CCC[C@@H](C)[C@H]1CC[C@H]2[C@@H](OC(=O)c3ccc(N(C)C)cc3)CCC[C@]12C", 1.4),
]

input: Name the recorded fold change (FC) for C=C1CC[C@H](O)C/C1=C/C=C1\CCC[C@]2(C)[C@@H]([C@H](C)CCCC(C)C)CC[C@@H]12 .
output: 8340

input: What value of fold change (FC) has been reported for the following compound? COc1ccccc1C(=O)O[C@H]1CCC[C@]2(C)[C@@H]([C@H](C)CCCC(C)C)CC[C@@H]12
output: 0.9

input: Entry under review: COc1ccc(C(=O)O[C@H]2CCC[C@]3(C)[C@@H]([C@H](C)CCCC(C)C)CC[C@@H]23)cc1 . Reported fold change (FC)?
output: 0.9

---

Target: Vitamin D3 receptor (Mus musculus)
Sequence (whole entry): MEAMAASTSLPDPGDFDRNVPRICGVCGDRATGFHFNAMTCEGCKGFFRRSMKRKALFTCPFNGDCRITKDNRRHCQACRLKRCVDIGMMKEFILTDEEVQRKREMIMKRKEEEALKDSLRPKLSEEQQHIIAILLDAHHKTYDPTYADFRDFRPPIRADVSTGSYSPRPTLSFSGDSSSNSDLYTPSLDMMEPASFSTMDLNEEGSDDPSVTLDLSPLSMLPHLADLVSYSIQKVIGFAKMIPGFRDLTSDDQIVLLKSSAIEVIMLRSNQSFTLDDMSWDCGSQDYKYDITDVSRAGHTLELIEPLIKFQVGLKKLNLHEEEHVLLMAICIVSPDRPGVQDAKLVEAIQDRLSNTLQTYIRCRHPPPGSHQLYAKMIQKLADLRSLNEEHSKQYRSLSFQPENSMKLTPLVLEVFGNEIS
Experiment: Activation of VDR in mouse C3H10T1/2 cells assessed as upregulation of CYP24A1 mRNA expression at 5 uM after 24 hrs by RT-PCR analysis relative to DMSO-treated control
Type: cell-based
Settings: C3H 10T1/2
fold change (FC) vs 3: at or above is Y, below is N.

See these solved cases before continuing.
# Cpd Smiles, Class
measured = [
    ("CC(C)CCC[C@@H](C)[C@H]1CC[C@H]2[C@@H](OC(=O)c3ccc(O)cc3)CCC[C@]12C", "Y"),
    ("CC(C)CCC[C@@H](C)[C@H]1CC[C@H]2[C@@H](OC(=O)c3cc(O)cc(O)c3)CCC[C@]12C", "Y"),
    ("CC(C)CCC[C@@H](C)[C@H]1CC[C@H]2[C@@H](OC(=O)c3ccc4cc(O)ccc4c3)CCC[C@]12C", "N"),
]

input: // inclusive: fold change (FC) at least 3? input: CC(C)CCC[C@@H](C)[C@H]1CC[C@H]2[C@@H](OC(=O)c3ccc(Cl)cc3)CCC[C@]12C
output: N

input: Check if fold change (FC) >= 3 (inclusive). Item: CC(C)CCC[C@@H](C)[C@H]1CC[C@H]2[C@@H](OC(=O)c3ccccc3Cl)CCC[C@]12C
output: N

input: Is the recorded value of fold change (FC) equal to or greater than 3 for this compound? CC(C)CCC[C@@H](C)[C@H]1CC[C@H]2[C@@H](OC(=O)c3ccncc3)CCC[C@]12C
output: Y

input: Can CC(C)CCC[C@@H](C)[C@H]1CC[C@H]2[C@@H](OC(=O)c3cc(O)c(O)c(O)c3)CCC[C@]12C be said to have fold change (FC) at or above 3?
output: Y

input: Has CC(C)CCC[C@@H](C)[C@H]1CC[C@H]2[C@@H](OC(=O)c3cccc4cc(O)ccc34)CCC[C@]12C a recorded fold change (FC) greater than or equal to 3?
output: Y

input: Please indicate if the recorded fold change (FC) for CC(C)CCC[C@@H](C)[C@H]1CC[C@H]2[C@@H](OC(=O)c3ccc(N)cc3)CCC[C@]12C meets or exceeds 3.
output: Y

---

test: Inhibition of hedgehog signaling pathway-mediated GLI1 mRNA expression in mouse ASZ001 cells after 24 hrs by RT-PCR analysis; format: cell-based; conditions: ASZ001, 24 h
Measured Endpoint: IC50 (µM)
The reply should be a number in µM, with the unit left off.

input: Need IC50 of CC(C)CCC[C@@H](C)[C@H]1CC[C@H]2[C@@H](OC(=O)c3cccc(O)c3)CCC[C@]12C , thanks.
output: 5.2

input: Given CC(C)CCC[C@@H](C)[C@H]1CC[C@H]2[C@@H](OC(=O)c3cc(O)c(O)c(O)c3)CCC[C@]12C , state its recorded IC50.
output: 8.1

input: Quick one: IC50 for CC(C)CCC[C@@H](C)[C@H]1CC[C@H]2[C@@H](OC(=O)c3cc(O)cc(O)c3)CCC[C@]12C ?
output: 4.1

input: Dear colleague, I am looking for the recorded IC50 of the following molecule: C=C1CC[C@H](O)C/C1=C/C=C1\CCC[C@]2(C)[C@@H]([C@H](C)CCCC(C)C)CC[C@@H]12
output: 2.1

input: Entry CC(C)CCC[C@@H](C)[C@H]1CC[C@H]2[C@@H](OC(=O)c3ccccn3)CCC[C@]12C has what IC50?
output: 4.8

input: Can you look up the measured IC50 of CC(C)CCC[C@@H](C)[C@H]1CC[C@H]2[C@@H](OC(=O)c3ccc(N)cc3)CCC[C@]12C for me?
output: 5.3

input: // IC50 lookup, key: CC(C)CCC[C@@H](C)[C@H]1CC[C@H]2[C@@H](OC(=O)c3cccc(N)c3)CCC[C@]12C
output: 7.1

input: Look up IC50: CC(C)CCC[C@@H](C)[C@H]1CC[C@H]2[C@@H](OC(=O)c3ccc(O)cc3)CCC[C@]12C
output: 6.6

---

Each entry below carries its recorded fold change (FC).
Target: Vitamin D3 receptor (Homo sapiens) (UniProt P11473)
Sequence (whole entry): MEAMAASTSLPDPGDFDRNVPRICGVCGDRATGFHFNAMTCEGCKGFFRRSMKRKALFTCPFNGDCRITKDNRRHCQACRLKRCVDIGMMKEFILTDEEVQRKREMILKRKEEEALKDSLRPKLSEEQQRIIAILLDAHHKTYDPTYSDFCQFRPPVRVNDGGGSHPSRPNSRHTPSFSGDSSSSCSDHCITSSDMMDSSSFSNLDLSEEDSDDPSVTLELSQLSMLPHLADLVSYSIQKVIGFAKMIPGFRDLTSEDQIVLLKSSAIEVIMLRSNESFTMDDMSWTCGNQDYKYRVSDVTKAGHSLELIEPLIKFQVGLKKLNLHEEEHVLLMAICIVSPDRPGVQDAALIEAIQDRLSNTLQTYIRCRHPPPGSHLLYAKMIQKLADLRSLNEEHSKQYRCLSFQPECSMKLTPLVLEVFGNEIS
Assay: Activation of VDR in human DaOY cells assessed as upregulation of CYP24A1 mRNA expression at 5 uM after 24 hrs by RT-PCR analysis relative to DMSO-treated control
Assay type: cell-based
Reply with just the number.

Solved entries (count: 3):
# Cpd Smiles, Test System, Experimental Value
data = [
    ("CC(C)CCC[C@@H](C)[C@H]1CC[C@H]2[C@@H](OC(=O)c3ccccn3)CCC[C@]12C", "Vitamin D3 receptor (Homo sapiens) (UniProt P11473)", 1.1),
    ("CC(C)CCC[C@@H](C)[C@H]1CC[C@H]2[C@@H](OC(=O)c3cccc(O)c3)CCC[C@]12C", "Vitamin D3 receptor (Homo sapiens) (UniProt P11473)", 1.9),
    ("CC(C)CCC[C@@H](C)[C@H]1CC[C@H]2[C@@H](OC(=O)c3ccc(O)cc3)CCC[C@]12C", "Vitamin D3 receptor (Homo sapiens) (UniProt P11473)", 1.5),
]

input: Tell me the measured fold change (FC) of CC(C)CCC[C@@H](C)[C@H]1CC[C@H]2[C@@H](OC(=O)c3cc(O)c(O)c(O)c3)CCC[C@]12C , please.
output: 1

input: Query: fold change (FC); subject: CC(C)CCC[C@@H](C)[C@H]1CC[C@H]2[C@@H](OC(=O)c3cccc(N)c3)CCC[C@]12C
output: 0.5

input: State the recorded fold change (FC) for this entry: CC(C)CCC[C@@H](C)[C@H]1CC[C@H]2[C@@H](OC(=O)c3ccc(N)cc3)CCC[C@]12C
output: 2.2

input: Can you share its fold change (FC)? I mean this compound: C=C1CC[C@H](O)C/C1=C/C=C1\CCC[C@]2(C)[C@@H]([C@H](C)CCCC(C)C)CC[C@@H]12
output: 149

input: Using the record for CC(C)CCC[C@@H](C)[C@H]1CC[C@H]2[C@@H](OC(=O)c3cc(O)cc(O)c3)CCC[C@]12C , report its fold change (FC).
output: 0.3

Data provenance is ChEMBL document CHEMBL3259768.
